MNTC listing for selected molecules.
- experimental-details: Cytotoxicity against mouse ScN2a cells assessed as maximal tolerant concentration
- Format: cell-based
- recorded-conditions: read-out: Activity
Value expressed in nM; do not type the unit.

Input `CCN(CC)c1cccc(Nc2c3ccc(Cl)cc3nc3ccc(OC)cc23)c1` . Output MNTC: 3000

Input `COc1ccc2nc3cc(Cl)ccc3c(Nc3ccc(N(C)C)cc3)c2c1` . Output MNTC: 2000

Input `COc1ccc2nc3cc(Cl)ccc3c(Nc3cccc(N(C)C)c3)c2c1` . Output MNTC: 2000

----------
- experimental-details: Cytotoxicity against mouse ScN2a cells assessed as maximal tolerant concentration
- Type: cell-based
- recorded-conditions: read-out: Activity
measurement-kind: MNTC (µM)
Value expressed in µM; do not type the unit.

                            molecule_smiles  measurement_kind  measurement_unit  observed_measurement
0             COc1ccc2nc3cc(Cl)ccc3c(N)c2c1              MNTC                µM                     4
1  COc1ccc2nc3cc(Cl)ccc3c(Nc3cccc(N4CCCCC4)c3)c2c1              MNTC                µM                     4
2  COc1ccc2nc3cc(Cl)ccc3c(Nc3ccc(N4CCN(C)CC4)cc3)c2c1              MNTC                µM                   2.5
3  COc1ccc2nc3cc(Cl)ccc3c(Nc3cccc(N4CCOCC4)c3)c2c1              MNTC                µM                     3

Kindly review the next compound as well.
Input `CCN(CC)CCNc1c2ccc(Cl)cc2nc2ccc(OC)cc12` . Output MNTC: 4

----------
- experimental-details: Cytotoxicity against mouse ScN2a cells assessed as maximal tolerant concentration
- Type: cell-based
- recorded-conditions: read-out: Activity
measurement-kind: MNTC (nM)
Value expressed in nM; do not type the unit.

The cases that follow already have their MNTC on record.
>>> print(df.to_string())
                            molecule_smiles  measurement_kind  observed_measurement
0  CCN(CC)CCCCNc1c2ccc(Cl)cc2nc2ccc(OC)cc12              MNTC                  1000
1   CCN(CC)CCCNc1c2ccc(Cl)cc2nc2ccc(OC)cc12              MNTC                  1000
2  COc1ccc2nc3cc(Cl)ccc3c(Nc3ccc(N4CCCCC4)cc3)c2c1              MNTC                  9000
3  CCN(CC)c1ccc(Nc2c3ccc(Cl)cc3nc3ccc(OC)cc23)cc1              MNTC                  2000
4  COc1ccc2nc3cc(Cl)ccc3c(Nc3cccc(N4CCCC4)c3)c2c1              MNTC                  2000

Kindly review the next compound as well.
Input `COc1ccc2nc3cc(Cl)ccc3c(N3CCN(C)CC3)c2c1` . Output MNTC: 4000

----------
- experimental-details: Selectivity index, ratio of maximal tolerant concentration for mouse ScN2a cells to EC50 for scrapie prion protein RML infected mouse ScN2a cells
measurement-kind: Selectivity Index
Could you respond with only the numeric value?

Input `CCN(CC)c1ccc(Nc2c3ccc(Cl)cc3nc3ccc(OC)cc23)cc1` . Output Selectivity Index: 4

Input `CCN(CC)CCCCNc1c2ccc(Cl)cc2nc2ccc(OC)cc12` . Output Selectivity Index: 7

Input `COc1ccc2nc3cc(Cl)ccc3c(Nc3cccc(N4CCCC4)c3)c2c1` . Output Selectivity Index: 2

Input `COc1ccc2nc3cc(Cl)ccc3c(N3CCN(C)CC3)c2c1` . Output Selectivity Index: 11

Input `COc1ccc2nc3cc(Cl)ccc3c(NC3CCN(Cc4ccccc4)CC3)c2c1` . Output Selectivity Index: 5

Input `COc1ccc2nc3cc(Cl)ccc3c(NCCCN(C)C)c2c1` . Output Selectivity Index: 9

----------
- experimental-details: Cytotoxicity against mouse ScN2a cells assessed as maximal tolerant concentration
- Assay type: cell-based
- recorded-conditions: read-out: Activity
Decide using MNTC alone. Strictly below 2000 nM: true. Equal to or above 2000 nM: false.

Please review the following examples before continuing.
In [3]: df
Out[3]:
                                   molecule  qualitative_label
0  COc1ccc2nc3cc(Cl)ccc3c(Nc3cccc(N4CCN(C)CC4)c3)c2c1              false
1  CCN(CC)CCCC(C)Nc1c2ccc(Cl)cc2nc2ccc(OC)cc12 (stereo not drawn)              false
2  COc1ccc2nc3cc(Cl)ccc3c(Nc3ccc(N4CCOCC4)cc3)c2c1              false
3     COc1ccc2nc3cc(Cl)ccc3c(NCCCN(C)C)c2c1               true
4  COc1ccc2nc3cc(Cl)ccc3c(Nc3ccccc3N(C)C)c2c1              false

Task item: Below 2000 nM on MNTC? Entry `CCN(CC)c1ccc(Nc2c3ccccc3nc3ccccc23)cc1`
Reply: true

Task item: Below 2000 nM on MNTC? Entry `Nc1c2ccccc2nc2ccccc12`
Reply: false

----------
Selectivity Index listing for selected molecules.
- experimental-details: Selectivity index, ratio of maximal tolerant concentration for mouse ScN2a cells to EC50 for scrapie prion protein RML infected mouse ScN2a cells
Could you respond with only the numeric value?

                            molecule_smiles  observed_measurement
0  COc1ccc2nc3cc(Cl)ccc3c(Nc3cccc(N4CCCCC4)c3)c2c1                    22
1  COc1ccc2nc3cc(Cl)ccc3c(Nc3ccc(N4CCOCC4)cc3)c2c1                     3
2  COc1ccc2nc3cc(Cl)ccc3c(Nc3cccc(N4CCN(C)CC4)c3)c2c1                    14

Kindly review the next molecule as well.
Input `COc1ccc2nc3cc(Cl)ccc3c(Nc3ccc(N4CCCCC4)cc3)c2c1` . Output Selectivity Index: 2
